The origin of these recorded values is ChEMBL document CHEMBL4373646.

Reported pIC50 values for a set of compounds
# study target: Bacterial 70S ribosome
# method: Inhibition of Mycobacterium smegmatis wild type ribosomes assessed as inhibition of translation activity using Firefly luciferase mRNA reporter based luminescence analysis
pIC50: −log10 of the molar value.

{"chemical structure": "CCN[C@@H]1C[C@H](N)[C@@H](O[C@H]2OC(CN)=C(Cl)C[C@H]2N)[C@H](O)[C@H]1O[C@H]1OC[C@](C)(O)[C@H](NC)[C@H]1O", "pIC50": 7.00}
{"chemical structure": "CCN[C@@H]1C[C@H](N)[C@@H](O[C@H]2OC(CN)=C(I)C[C@H]2N)[C@H](O)[C@H]1O[C@H]1OC[C@](C)(O)[C@H](NC)[C@H]1O", "pIC50": 7.00}
{"chemical structure": "CCN[C@@H]1C[C@H](N)[C@@H](O[C@H]2OC(CN)=C(Br)C[C@H]2N)[C@H](O)[C@H]1O[C@H]1OC[C@](C)(O)[C@H](NC)[C@H]1O", "pIC50": 7.00}
